- test_method_notes: Binding affinity to M13mp19 DNA by spectrophotometric titration method
quantity: Kb

Field: example entries. Status: answers known.
> print(dat)
                                 mol.smiles  quantity       result
1  CN(C)c1ccc(-c2cc(-c3ccc(N(C)C)cc3)[s+]c(C(C)(C)C)c2)cc1        Kb  0.91 10^4/M
2  CCCc1cc(-c2ccc(N(C)C)cc2)cc(-c2ccc(N(C)C)cc2)[s+]1        Kb  3.47 10^4/M
3  CC(C)c1cc(-c2ccc(N(C)C)cc2)cc(-c2ccc(N(C)C)cc2)[s+]1        Kb  1.17 10^4/M
4  Cc1cc(-c2ccc(N(C)C)cc2)cc(-c2ccc(N(C)C)cc2)[s+]1        Kb   6.1 10^4/M
5  CCCCc1cc(-c2ccc(N(C)C)cc2)cc(-c2ccc(N(C)C)cc2)[s+]1        Kb  7.58 10^4/M
6  CN(C)c1ccc(-c2cc(-c3ccc(N(C)C)cc3)[se+]c(C(C)(C)C)c2)cc1        Kb   2.5 10^4/M

Turning now to a further record.
(Q) Looking for the measured Kb of `CCc1cc(-c2ccc(N(C)C)cc2)cc(-c2ccc(N(C)C)cc2)[s+]1` , can you help?
(A) 1.8 10^4/M

From: ChEMBL document CHEMBL1143687
